biological target: Histone-lysine N-methyltransferase EHMT2 (Homo sapiens) (UniProt Q96KQ7); test: qHTS Assay for Inhibitors of Histone Lysine Methyltransferase G9a; details: G9a H3K9 monomethylation, AlphaScreen, 2 h; series mostly up to 59 µM; note: nearly all actives have a fitted effect of over 75% in size
Sequence (Q96KQ7 913-1193 limits assumed): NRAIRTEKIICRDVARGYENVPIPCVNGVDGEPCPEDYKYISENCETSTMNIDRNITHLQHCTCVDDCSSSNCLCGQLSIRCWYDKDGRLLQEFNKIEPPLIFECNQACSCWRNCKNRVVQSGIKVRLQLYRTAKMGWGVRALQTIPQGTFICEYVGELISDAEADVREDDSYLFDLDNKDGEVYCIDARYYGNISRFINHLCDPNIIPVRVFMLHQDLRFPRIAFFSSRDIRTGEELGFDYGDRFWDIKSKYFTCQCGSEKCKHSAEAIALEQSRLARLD
Hit rate of the full screen: of about 350,000 compounds, about 31,000 (8.9%) were called active. Roughly 15% stayed inconclusive and do not appear here. Calls come from the whole dose curve; as a rule, active = well fitted inhibition curve with a large enough effect; inconclusive = small, poorly fitted or top-dose-only effect; inactive = no such curve, though single readings can be large or run the other way. For the sample, actives were picked, then their nearest neighbours and some compounds at random.
Write down one outcome, taken from active, inactive

CCCCN(C)C(=O)C1CCN(Cc2ccccn2)CC1
active
COc1cc2ccccc2cc1C(=O)Nc1cccc(-c2nc3ccccc3o2)c1
inactive
CCNC(=S)NNC(=O)c1ccc2ncccc2c1
inactive
O=C(Nc1ccc(Cl)cc1)Nc1ccc(C(=O)N2CCOCC2)cc1
inactive
COc1ccc(C(=O)OCC(=O)N2CC(=O)Nc3ccccc32)cc1Br
inactive

[ask] Record lookup: outcome of this test for Cc1ccc(C(=O)N2CCc3cc(CNC(=O)c4ccc(Br)cc4)ccc32)cc1 ?
[reply] inactive

[ask] Record lookup: outcome of this test for O=C(NCc1ccc2c(c1)CCN2C(=O)c1ccccc1)c1ccccc1 ?
[reply] inactive

----------
target: Histone-lysine N-methyltransferase EHMT2 (Homo sapiens); experiment: qHTS Assay for Inhibitors of Histone Lysine Methyltransferase G9a; details: G9a H3K9 monomethylation, AlphaScreen, 2 h; series mostly up to 59 µM; note: nearly all actives have a fitted effect of over 75% in size
The campaign covered roughly 350,000 compounds. About 31,000 (8.9%) were called active. Another 15% or so got no clear call; they are omitted. The call rests on the fitted dose curve; in most records, active means well fitted inhibition curve with a large enough effect; inconclusive means small, poorly fitted or top-dose-only effect; inactive means no such curve, though single readings can be large or run the other way. For the sample, actives were picked, then their nearest neighbours and some compounds at random.
Write down one outcome, taken from T (active), F (inactive)

Answered examples (3):
CC1CN(C(=S)SCC(=O)c2ccccc2)CC(C)O1 (configuration not stated)
T
Cc1ccc(Nc2cc(C)nc3c(C)ccc([N+](=O)[O-])c23)cc1
T
COC(=O)c1ccc(C(=O)NC2CC(C)(C)Cc3c2cnn3-c2ccc(F)cc2)nc1 (configuration not stated)
F

[ask] Record lookup: outcome of this test for Cc1c(C(=O)NCC(c2ccco2)N2CCCC2)oc2ccc(Cl)cc12 (configuration not stated) ?
[reply] F

[ask] Record lookup: outcome of this test for CCOc1cc(N2CCOCC2)c(OCC)cc1NC(=O)COc1cccc2cccnc12 ?
[reply] F

----------
molecular target: Histone-lysine N-methyltransferase EHMT2 (Homo sapiens) (UniProt Q96KQ7); assay: qHTS Assay for Inhibitors of Histone Lysine Methyltransferase G9a; conditions: G9a H3K9 monomethylation, AlphaScreen, 2 h; series mostly up to 59 µM; note: nearly all actives have a fitted effect of over 75% in size; note: potency is the fitted concentration of half-maximal effect
About 31,000 (8.9%) of roughly 350,000 compounds were called active. Roughly 15% stayed inconclusive and do not appear here. Shown is part of a subset that was picked to be rich in actives.
readout_type: Potency

Solved cases below.
CCOC(=O)c1ccc(NC(=O)Cn2c(=O)n(-c3ccc(C)cc3)c(=O)c3c2cnn3C)cc1
inactive
COc1ccc(N2CCN(C(=O)CSCc3nc(-c4ccccc4Cl)oc3C)CC2)cc1
inactive
O=C(O)CCc1nc2cc(Cl)ccc2n(Cc2ccccc2)c1=O
50.1 µM (active)
CCCn1c(SCC(=O)c2ccc3c(c2)OCCO3)nnc1C(C)C
44.7 µM (active)
O=C(c1ccccc1)c1ccc(OCC(O)CN2CCCC2)cc1 (stereo unspecified)
inactive
CCCn1c(SCC(N)=O)nnc1C(C)C
inactive
COc1ccc(NC(=O)CCNS(=O)(=O)c2ccc3c(c2)c(=O)n(C)c(=O)n3C)cc1OC
inactive
O=C(O)CCn1c(Cc2ccccc2)nc2ccccc21
inactive

[ask] Return reported Potency; argument: Cn1c2ccc(F)cc2c2nnc(NN)nc21
[reply] 39.8 µM (active)

[ask] Return reported Potency; argument: CN1CCN(C2(CNC(=O)COc3ccc(C(C)(C)C)cc3)CCCCC2)CC1
[reply] inactive

[ask] Return reported Potency; argument: COC(=O)c1ccccc1NC(=O)c1ccc2c(=O)n3c(nc2c1)CCCCC3
[reply] inactive

----------
biological target: Histone-lysine N-methyltransferase EHMT2 (Homo sapiens) (UniProt Q96KQ7); assay: qHTS Assay for Inhibitors of Histone Lysine Methyltransferase G9a; conditions: G9a H3K9 monomethylation, AlphaScreen, 2 h; series mostly up to 59 µM; note: nearly all actives have a fitted effect of over 75% in size
The campaign covered roughly 350,000 compounds. About 31,000 (8.9%) were called active. Not shown: some 15% with an inconclusive outcome. Calls follow the shape of the dose curve; as a rule, active = well fitted inhibition curve with a large enough effect; inconclusive = small, poorly fitted or top-dose-only effect; inactive = no such curve, though single readings can be large or run the other way. Only a selection was taken, and actives are over-represented in it overall.
Write down one outcome, taken from TRUE = active, FALSE = inactive

COc1cc(NC(=O)N2CCOCC2)cc(OC)c1
FALSE

[ask] Record lookup: outcome of this test for COc1cc(C(=S)N2CCOCC2)cc(OC)c1OC(=O)c1cc([N+](=O)[O-])cc([N+](=O)[O-])c1 ?
[reply] TRUE

[ask] Record lookup: outcome of this test for O=C(Oc1ccc(Br)cc1C(=S)N1CCOCC1)c1cccc([N+](=O)[O-])c1 ?
[reply] TRUE

[ask] Record lookup: outcome of this test for COc1cc([N+](=O)[O-])cc([N+](=O)[O-])c1NC(=O)N1CCOCC1 ?
[reply] TRUE

[ask] Record lookup: outcome of this test for CCCCn1cc(S(=O)(=O)c2ccc(OCC)cc2)c(=O)c2cc(OC)c(OC)cc21 ?
[reply] FALSE

[ask] Record lookup: outcome of this test for COc1cc(C(=O)N2CCOCC2)cc(OC)c1OC ?
[reply] FALSE

[ask] Record lookup: outcome of this test for CC(C)(C)C(=O)COC(=O)c1cc(S(=O)(=O)N2CCCCC2)ccc1N1CCOCC1 ?
[reply] FALSE

----------
target: Histone-lysine N-methyltransferase EHMT2 (Homo sapiens); test: qHTS Assay for Inhibitors of Histone Lysine Methyltransferase G9a; details: G9a H3K9 monomethylation, AlphaScreen, 2 h; series mostly up to 59 µM; note: nearly all actives have a fitted effect of over 75% in size; note: potency is the fitted concentration of half-maximal effect
Out of some 350,000 compounds screened, about 31,000 (8.9%) were called active. Inconclusive results (about 15%) are left out. This excerpt belongs to a sample that is enriched for actives.
readout_type: Potency

OC(COc1ccc(Br)cc1)CN1CCCC1 (configuration not stated)
inactive
Cc1cc(OCCN2CCCC2)cc(C(C)C)c1
11.2 µM (active)
COc1cccc(OCC(O)CN2CCN(CCO)CC2)c1 (configuration not stated)
inactive
Cc1cccc(-n2ncc(C(=O)N3CCN(c4ccc(Cl)cc4)CC3)c2C2CCN(C(=O)OC(C)(C)C)CC2)c1
inactive
C/C(=N\NC(=O)c1cccnc1)c1ccc(-c2ccccc2)cc1
inactive
CS(=O)(=O)Nc1cccc(C2=NN(C(=O)c3cccc(F)c3)C(c3cccs3)C2)c1 (configuration not stated)
inactive
CCC(C)C(=O)Nc1ccccc1N1CCN(c2ccc(F)cc2)CC1 (configuration not stated)
inactive
O=C(CSc1nc(=O)n2ccccc2n1)Nc1ccc2c(c1)OCCO2
inactive

[ask] API: value(readout= Potency, system= Histone-lysine N-methyltransferase EHMT2 (Homo sapiens), query= O=C(N/N=C/c1ccc(O)c2ccccc12)c1cccnc1 )
[reply] inactive

[ask] API: value(readout= Potency, system= Histone-lysine N-methyltransferase EHMT2 (Homo sapiens), query= COc1cccc(-n2c(=S)sc3c(=O)n(-c4ccccc4C)c(SCC(=O)O)nc32)c1 )
[reply] inactive

[ask] API: value(readout= Potency, system= Histone-lysine N-methyltransferase EHMT2 (Homo sapiens), query= COc1cccc(OCCCN2CCCCCC2)c1 )
[reply] 11.2 µM (active)

[ask] API: value(readout= Potency, system= Histone-lysine N-methyltransferase EHMT2 (Homo sapiens), query= COc1cccc(C(=O)NCC(=O)OCc2cc(=O)n3ccsc3n2)c1 )
[reply] inactive

----------
biological target: Histone-lysine N-methyltransferase EHMT2 (Homo sapiens) (UniProt Q96KQ7); assay: qHTS Assay for Inhibitors of Histone Lysine Methyltransferase G9a; conditions: G9a H3K9 monomethylation, AlphaScreen, 2 h; series mostly up to 59 µM; note: nearly all actives have a fitted effect of over 75% in size; note: potency is the fitted concentration of half-maximal effect
The whole screen tested about 350,000 compounds, of which about 31,000 (8.9%) were called active. Not shown: some 15% with an inconclusive outcome. The sample holds actives, similar compounds and a random draw of the others, so the mix is not that of the screen.
readout_type: Potency

O=C(Nc1cccc(S(=O)(=O)N2CCCCC2)c1)c1ccc2c(c1)OCO2
1 µM (active)
N#Cc1nc(Cc2cccc3ccccc23)oc1NCc1ccc2c(c1)OCO2
10 µM (active)
COc1ccc(Cc2nc3ccc(C(=O)NCc4ccc(OC)cc4OC)cc3o2)cc1
inactive
Cc1ccc2nc(/C(C#N)=C\c3ccc(OC(=O)c4cccs4)cc3)[nH]c2c1
inactive
Cc1ccc(Cc2nnc(SCC(=O)Nc3ccc(C)cc3C)[nH]c2=O)cc1
inactive

[ask] Return reported Potency; argument: O=C(NN1C(=O)C2C3C=CC(C4CC34)C2C1=O)c1ccc(Cl)cc1 (centres undefined)
[reply] inactive

[ask] Return reported Potency; argument: COc1ccccc1CNC(=O)c1ccc(CS(=O)c2ccccc2Cl)o1 (centres undefined)
[reply] inactive

[ask] Return reported Potency; argument: COc1ccccc1C(=O)NN1C(=O)C2C3C=CC(O3)C2C1=O (centres undefined)
[reply] 35.5 µM (active)

[ask] Return reported Potency; argument: Cc1ccc(C)c(S(=O)(=O)c2nnn3c2nc(N2CCOCC2)c2sccc23)c1
[reply] inactive

[ask] Return reported Potency; argument: CCc1ccc(Nc2nnc(SCC(=O)c3ccc4c(c3)NC(=O)CO4)s2)cc1
[reply] 15.8 µM (active)

[ask] Return reported Potency; argument: Cc1ccc2nc(S(=O)(=O)O)[nH]c2c1
[reply] 89.1 µM (active)

Attribution: PubChem BioAssay AID504332
